testTarget: T1, 4H780-AA
T1 chain: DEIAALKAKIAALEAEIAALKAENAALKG
measurementNotes: two-hybrid library CCmax;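 also: natural log of median RNA to DNA barcode read ratio; higher means stronger binding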
conditionParameters: mean of both orientations
Just a reminder that ties go to No: only interaction score strictly below -1 counts as Yes.

>>> group("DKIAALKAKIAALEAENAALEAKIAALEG [4H2837-AA]")
"Yes"
>>> group("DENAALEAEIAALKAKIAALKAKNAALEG [4H1135-AA]")
"Yes"
>>> group("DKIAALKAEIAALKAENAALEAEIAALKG [4H2642-AA]")
"Yes"
>>> group("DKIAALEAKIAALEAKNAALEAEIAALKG [4H2354-AA]")
"Yes"
>>> group("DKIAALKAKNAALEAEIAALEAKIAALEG [4H2949-AA]")
"Yes"
>>> group("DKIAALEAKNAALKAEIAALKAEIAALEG [4H2505-AA]")
"Yes"
>>> group("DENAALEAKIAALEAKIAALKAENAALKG [4H1324-AA]")
"No"
>>> group("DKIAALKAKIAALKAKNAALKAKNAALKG [4H2944-AA]")
"Yes"
>>> group("DEIAALEAKIAALKAEIAALKAKNAALEG [4H335-AA]")
"No"
>>> group("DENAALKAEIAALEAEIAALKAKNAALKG [4H1552-AA]")
"No"
>>> group("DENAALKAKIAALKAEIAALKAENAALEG [4H1867-AA]")
"No"
>>> group("DEIAALEAKNAALKAEIAALEAKIAALKG [4H454-AA]")
"Yes"
